Can you tell me 5a Activity for the items I'm about to list?
TARGET OR TEST SYSTEM: TRAP5a (Homo sapiens)
Construct: Serum-derived TRAP5a and TRAP5b were separated by ion exchange chromatography; from tissue; host or cells: human serum
Sequence (P13686 22-325): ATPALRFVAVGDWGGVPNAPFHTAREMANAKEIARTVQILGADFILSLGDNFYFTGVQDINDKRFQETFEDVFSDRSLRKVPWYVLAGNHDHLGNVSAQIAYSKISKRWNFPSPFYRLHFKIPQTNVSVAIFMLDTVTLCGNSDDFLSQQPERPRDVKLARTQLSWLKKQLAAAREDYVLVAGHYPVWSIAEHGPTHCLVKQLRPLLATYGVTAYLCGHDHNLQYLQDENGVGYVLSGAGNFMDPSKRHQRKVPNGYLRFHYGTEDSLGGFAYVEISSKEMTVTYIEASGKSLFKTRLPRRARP
TEST: Activity with phthalein monophosphate esters at 0.47 mg/mL, pH 7.4 (Example 8)
Assay type: biochemical
Design: unit not given beside the values
EXPERIMENTAL PARAMETERS: 0.47 mg/mL in 100 mM MES pH7.4
Description: To test for activity towards PTMP, 100 μL of a solution containing 6 mg/mL PTMP dissolved in 125 mM MOPS buffer, pH 7.0 was added per well and incubated for 0-40 min at 37° C. The reactions were stopped at the times indicated by the addition of 50 μL per well of 1M glycine/NaOH, pH11 and the absorbance at […] was measured. […] The reactions were stopped at the times indicated by the addition of 50 μL per well of 0.25 M NaOH and the absorbance at […] was measured. […]
Answers are plain numbers.

Answered cases to consult:
COMPOUND: Cc1cc(C2(c3cc(C)c(OP(=O)(O)O)c(Br)c3)OS(=O)(=O)c3ccccc32)cc(Br)c1O (centres unmarked) [Bromocresol Purple, Bromocresol Purple monophosphate]
5a Activity: 0.0074
--
COMPOUND: O=P(O)(O)Oc1ccc(C2(c3ccc(O)c(Cl)c3)OS(=O)(=O)c3ccccc32)cc1Cl (centres unmarked) [Chlorophenol Red, Chlorophenol Red monophosphate]
5a Activity: 0.0067
--
COMPOUND: O=C1OC(c2ccc(O)cc2)(c2ccc(OP(=O)(O)O)cc2)c2ccccc21 (centres unmarked) [PTMP, Phenolphthalein monophosphate]
5a Activity: 0.0110

Your task in this section: give 5a Activity for each listed record.
1. O=P(O)(O)Oc1ccc(C2(c3ccc(O)cc3)OS(=O)(=O)c3ccccc32)cc1 (centres unmarked) [Phenol Red, Phenol Red monophosphate]
2. Cc1c(C2(c3cc(Br)c(OP(=O)(O)O)c(Br)c3C)OS(=O)(=O)c3ccccc32)cc(Br)c(O)c1Br (centres unmarked) [Bromocresol Green, Bromocresol Green monophosphate]

1: 0.0067; 2: 0.0036
